// data source = patent US20120276102A1

Assayed System: T1, human IL-21R extracellular domain His-Flag fusion protein (human, UniProt Q9HBE5 20-232)
T1 construct: Biotinylated in the HTRF screen; also called hIL-21R-H/F; human IL-21R-H/F
T1 sequence (Q9HBE5 20-232): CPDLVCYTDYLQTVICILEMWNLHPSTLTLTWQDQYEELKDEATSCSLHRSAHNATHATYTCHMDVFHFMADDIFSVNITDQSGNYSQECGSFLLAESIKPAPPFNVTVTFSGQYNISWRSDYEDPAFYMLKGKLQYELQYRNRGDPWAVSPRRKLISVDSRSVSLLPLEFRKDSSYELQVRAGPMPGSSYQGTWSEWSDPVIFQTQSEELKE
Experiment: SPR, Ab captured on anti-human IgG, replicate experiment
Reported pKd values follow for various binders
// returns pKd (minus log10 of molar concentration), number only

1) AbS (antibody, V domains shown, CDR3 graft, residue limits derived as for m29; also called VHP/VL6; VHPTM/VL6) VH: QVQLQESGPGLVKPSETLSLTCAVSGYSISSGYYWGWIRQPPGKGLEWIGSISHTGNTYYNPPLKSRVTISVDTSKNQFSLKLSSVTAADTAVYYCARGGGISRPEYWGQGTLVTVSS VL: SSELTQDPAVSVALGQTVRITCQGDSLRTYYASWYQQKPGQAPVLVIYGKHKRPSGIPDRFSGSSSGNTASLTITGAQAEDEADYYCMSRSIWGNPHVLFGGGTQLTVL; 8.82

Just so you know, measured pKd for parental 18A5 antibody (antibody, V domains shown, also called 18A5 IgG) VH: QVQLQESGPGLVKTSETLSLTCAVSGYSISSGYYWGWIRQPPGKGLEWIGSISHTGNTYYNPPLKSRVTISVDTSKNQFSLKLSSVTAADTAVYYCARGGGISRPEYWGKGTLVTVSS VL: SSELTQDPPVSVALGQTVTLTCQGDSLRTYYASWYQQKSGQAPILLLYGKHKRPSGIPDRFSGSTSGDTASLTITGAQAEDEADYYCNSRDSSGNPHVLFGGGTQLTVL came out at 8.36
